Listed compounds paired with reported relative viability
# Tested on: NCI-H838
# ASSAY DETAILS: relative viability (nuclei count vs DMSO), 5 days (fraction); higher = more cells survive
# SETTINGS: first compound 0.253 µM

>  <COMPOUND>
O=c1[nH]c2ccccc2n1C1CCN(CCCC(c2ccc(F)cc2)c2ccc(F)cc2)CC1 [Pimozide] + CC(=O)Nc1cccc(-n2c(=O)n(C3CC3)c(=O)c3c(Nc4ccc(I)cc4F)n(C)c(=O)c(C)c32)c1 [Trametinib] (partner 0.02 µM)

>  <relative viability>
0.561

$$$$
>  <COMPOUND>
O=c1[nH]c2ccccc2n1C1CCN(CCCC(c2ccc(F)cc2)c2ccc(F)cc2)CC1 [Pimozide] + Nc1nc2[nH]cc(CCc3ccc(C(=O)N[C@@H](CCC(=O)O)C(=O)O)cc3)c2c(=O)[nH]1 [Pemetrexed] (partner 0.2 µM)

>  <relative viability>
0.242

$$$$
>  <COMPOUND>
O=c1[nH]c2ccccc2n1C1CCN(CCCC(c2ccc(F)cc2)c2ccc(F)cc2)CC1 [Pimozide] + C[C@]1(O)C[C@@H](c2nc(-c3ccc4ccc(-c5ccccc5)nc4c3)c3c(N)nccn32)C1 [Linsitinib] (partner 1 µM)

>  <relative viability>
0.999

$$$$
>  <COMPOUND>
Cc1cnc(-c2cnc(NCCNc3ccc(C#N)cn3)nc2-c2ccc(Cl)cc2Cl)[nH]1 + CS(=O)(=O)N1CCN(Cc2cc3nc(-c4cccc5[nH]ncc45)nc(N4CCOCC4)c3s2)CC1 [Pictilisib] (partner 1 µM)

>  <relative viability>
0.552

$$$$
>  <COMPOUND>
Cc1cnc(-c2cnc(NCCNc3ccc(C#N)cn3)nc2-c2ccc(Cl)cc2Cl)[nH]1 + CC1(C)CCC(c2ccc(Cl)cc2)=C(CN2CCN(c3ccc(C(=O)NS(=O)(=O)c4ccc(N[C@H](CCN5CCOCC5)CSc5ccccc5)c(S(=O)(=O)C(F)(F)F)c4)cc3)CC2)C1 [Navitoclax] (partner 0.5 µM)

>  <relative viability>
1.11

$$$$
>  <COMPOUND>
O=c1[nH]c2ccccc2n1C1CCN(CCCC(c2ccc(F)cc2)c2ccc(F)cc2)CC1 [Pimozide] + CCNC(=O)c1noc(-c2cc(C(C)C)c(O)cc2O)c1-c1ccc(CN2CCOCC2)cc1 [Luminespib] (partner 0.01 µM)

>  <relative viability>
0.379

$$$$
>  <COMPOUND>
Cc1cnc(-c2cnc(NCCNc3ccc(C#N)cn3)nc2-c2ccc(Cl)cc2Cl)[nH]1 + Cc1nc(Nc2ncc(C(=O)Nc3c(C)cccc3Cl)s2)cc(N2CCN(CCO)CC2)n1 [Dasatinib] (partner 0.075 µM)

>  <relative viability>
0.307

$$$$
>  <COMPOUND>
O=c1[nH]c2ccccc2n1C1CCN(CCCC(c2ccc(F)cc2)c2ccc(F)cc2)CC1 [Pimozide] + Cc1cc(Nc2cc(N3CCN(C)CC3)nc(Sc3ccc(NC(=O)C4CC4)cc3)n2)n[nH]1 [Tozasertib] (partner 0.1 µM)

>  <relative viability>
0.287

$$$$
>  <COMPOUND>
Cc1cnc(-c2cnc(NCCNc3ccc(C#N)cn3)nc2-c2ccc(Cl)cc2Cl)[nH]1 + CS(=O)(=O)CCNCc1ccc(-c2ccc3ncnc(Nc4ccc(OCc5cccc(F)c5)c(Cl)c4)c3c2)o1 [Lapatinib] (partner 2 µM)

>  <relative viability>
0.858

$$$$
